Assay: NCI Yeast Anticancer Drug Screen. Data for the bub3 strain (AID 167)
Settings: S. cerevisiae bub3 mutant strain, at 50.0 µM, stronger effect = higher value
Protocol: Growth inhibition of yeast strains with defined genetic alterations is measured as a screen for potential anti-cancer activity. Selected strains with alterations in DNA damage repair or cell cycle control were exposed to compounds and growth inhibition was measured relative to vehicle treated controls. The strain used in this assay is bub3
The panel holds about 79,000 compounds, 15% with a hit somewhere; the sample as a whole holds those more often.
Exercise: state measured growth inhibition for each of the compounds provided.
Supply the numeric figure in %, leaving out any unit text.

Record summary for COC(=O)[C@H]1[C@H]2C[C@@H]3c4[nH]c5cc(OC)ccc5c4CCN3C[C@H]2C[C@@H](OC(=O)c2cc(OC)c(OC)c(OC)c2)[C@@H]1OC : reported growth inhibition = 25.7

The reported value for C=CCCCCCCCCCCCC in terms of growth inhibition is -21.2

The compound listed as O=C(O)C(O)c1cccc([N+](=O)[O-])c1 (centres undefined) has a reported growth inhibition of -32.2

For this compound ( NC(=O)N1CCCCC1 ), measured growth inhibition is 13.9

The measured growth inhibition associated with CCCCNC(N)=O reads -2.2

growth inhibition recorded for this compound, COC(=O)/C(C)=C1\C=C(C)CC(C)(C)C1 , is -23.9

Just so you know, measured growth inhibition for CNc1c(F)cc(C#N)cc1F came out at 0.75

GET /value?item= C#CC(C)(C)Nc1ccccc1 &field=growth inhibition returns -4.95

// growth inhibition value for C1=N/C=C\C=C/c2ccc[n+](CCCCC[n+]3ccccc3-c3ccccn3)c21 : 36.7

compound CCNC(=O)NCC , growth inhibition observed: -2

Entry Cc1ccc(S(=O)(=O)NN=C2CC3C4CCC5C4CC3C25)cc1 (centres undefined) , growth inhibition reported as -13.5

Value of growth inhibition reported for the compound CC1CN(C(=O)OCC23COC4(C)CCC(C)(OC2)N34)CC(C)O1 (centres undefined) is -0.7

Field growth inhibition (entry C#CCN(C(=O)C(F)(F)F)C(/C=C\C(=O)OC)(C(=O)OCC)C(=O)OCC ) reads -17.2

Reported growth inhibition ( NC(C(=O)O)C(F)(F)C(=O)O (centres undefined) ) = -7.3
